This listing pairs compounds with measured mortality at 250 ppm.
system: Tetranychus urticae (spider mites - ova); assay: Contact test, spider mites - ova (TUe), French bean leaf; assay type: in vivo; settings: 144 h, 250 ppm, 6 days, read-out: TUE grading of mortality

Observe how each entry below is paired with its result.
{"compound": "FC(F)(F)C(CCCc1cccc(Oc2ccccc2)c1)c1ccc2c(c1)CCC2 (racemic)", "mortality at 250 ppm": "< 50%"}
{"compound": "CCOc1ccc(C(CCCc2cccc(Oc3ccccc3)c2)C(F)(F)C(F)(F)F)cc1 (racemic)", "mortality at 250 ppm": "< 50%"}

Lab note: next compound to report on.
Entry CCOc1ccc(C(=CCCc2cccc(Oc3ccccc3)c2)C(F)(F)C(F)(F)F)cc1 has what mortality at 250 ppm? < 50%

The measured values listed here are drawn from patent US4791139A.
